- Test system: Bacillus subtilis
- PROTOCOL SUMMARY: Antibacterial activity against Bacillus subtilis measured after 20 to 45 mins by broth microdilution method
- Assay type: functional
- APPLIED CONDITIONS: time 20-45 min

COMPOUND: O=C(O)c1cn(C2CC2)c2cc(N3CCNCC3)c(F)cc2c1=O
MIC: 1.6 µg/mL
--
COMPOUND: CO[C@H]1CCC[C@H](C)OC(=O)Cc2cc(O)cc(O)c2C(=O)C1
MIC: > 25 µg/mL
--
COMPOUND: CC1=C[C@@H]2/C=C(\C)CC[C@H](O)[C@H](O)/C=C/C(=O)O[C@]23C(=O)N[C@@H](CC(C)C)[C@@H]3[C@@H]1C
MIC: > 25 µg/mL
--
COMPOUND: C[C@H]1CCC/C=C/C(=O)c2c(O)cc(O)cc2CC(=O)O1 [DEHYDROCURVULARIN]
MIC: 3.1 µg/mL
--
COMPOUND: CC1=C[C@@H]2/C=C(\C)CC[C@@H](O)[C@@H](O)/C=C/C(=O)[C@]23C(=O)N[C@@H](CC(C)C)[C@@H]3[C@@H]1C
MIC: 6.3 µg/mL
--
COMPOUND: C[C@H]1CCC(=O)CCC(=O)c2c(O)cc(O)cc2CC(=O)O1
MIC: > 25 µg/mL
--
COMPOUND: CC1=C[C@@H]2/C=C(\C)CC[C@@H](O)[C@@H](O)[C@H](O)CC(=O)[C@]23C(=O)N[C@@H](CC(C)C)[C@@H]3[C@@H]1C
MIC: > 25 µg/mL
--
COMPOUND: CC1=C[C@@H]2/C=C(\C)CCC(=O)[C@@H](O)/C=C/C(=O)[C@]23C(=O)N[C@@H](CC(C)C)[C@@H]3[C@@H]1C
MIC: > 25 µg/mL
